The following substances are shown together with reported RT values.
Assay: RP-HPLC retention time (read by the paper as polarity)
Assay type: physicochemical
Details: incubation of BE 1-17; Jupiter C4 column, water/acetonitrile gradient with 0.1% formic acid, MS TIC detection
Return type: number; implicit unit min.

Solved cases (2 shown):
>>> result("BE 7-14: beta-endorphin fragment, residues 7-14 (SEKSQTPL; Beta-endorphin; UniProt P01189 243-250, looked up, fragment)")
14.92
>>> result("BE 6-14: beta-endorphin fragment, residues 6-14 (TSEKSQTPL; Beta-endorphin; UniProt P01189 242-250, looked up, fragment)")
14.62

I would be grateful if you could share the reported RT for BE 1-14: beta-endorphin N-terminal fragment, residues 1-14 (YGGFMTSEKSQTPL; Beta-endorphin; UniProt P01189 237-250, looked up, fragment) .
21.13

What about BE 3-17: beta-endorphin fragment, residues 3-17 (GFMTSEKSQTPLVTL; Beta-endorphin; UniProt P01189 239-253, looked up, fragment) ?
24

Again, but for BE 2-14: beta-endorphin fragment, residues 2-14 (GGFMTSEKSQTPL; Beta-endorphin; UniProt P01189 238-250, looked up, fragment)
20.1

###

Assay: RP-HPLC retention time (read by the paper as polarity)
Format: physicochemical
Details: incubation of BE 1-31; Jupiter C4 300 A column, water/acetonitrile gradient with 0.1% formic acid, 200 µl/min, MS TIC detection
Observation type: RT (min)
// note: answer is a bare numeric in min

Worked cases, answers included:
>>> result("BE 20-29: beta-endorphin fragment, residues 20-29 (NAIIKNAYKK; Beta-endorphin; UniProt P01189 256-265, looked up, fragment)")
14.3
>>> result("BE 18-31: beta-endorphin fragment, residues 18-31 (FKNAIIKNAYKKGE; Beta-endorphin; UniProt P01189 254-267, looked up, fragment)")
16.1

# ---- query substance ----
Need RT of BE 5-24: beta-endorphin fragment, residues 5-24 (MTSEKSQTPLVTLFKNAIIK; Beta-endorphin; UniProt P01189 241-260, looked up, fragment) , thanks.
19

###

Experiment: Biotransformation in homogenised inflamed tissue at pH 5.5 (LC/MS, mean residence time)
Conditions: incubation of BE 1-17 (115 µM) in rat inflamed tissue homogenate, MES pH 5.5, 37°C, 120 min; AUMC/AUC of LC/MS peak intensity
Where no end group is shown, it is not given here.
We use 20 as the dividing line for MRT: on or above the line is condition met, below is condition not met.

These solved cases illustrate the format of a correct answer.
>>> group_label("YGGFMTSEKSQTP [BE 1–13]")
"condition met"
>>> group_label("BE 3-16: beta-endorphin fragment, residues 3-16 (GFMTSEKSQTPLVT; Beta-endorphin; UniProt P01189 239-252, looked up, fragment)")
"condition not met"
>>> group_label("BE 2-11: des-tyrosine beta-endorphin fragment, residues 2-11 (GGFMTSEKSQ; Beta-endorphin; UniProt P01189 238-247, looked up, fragment)")
"condition met"

Identify whether the reported MRT of the following substance is 20 or greater: BE 1-16: beta-endorphin N-terminal fragment, residues 1-16 (YGGFMTSEKSQTPLVT; Beta-endorphin; UniProt P01189 237-252, looked up, fragment)
condition not met

Ok, now YGGFMTSEKSQTPLVTL [BE 1–17]
condition not met

Okay, and BE 1-15: beta-endorphin N-terminal fragment, residues 1-15 (YGGFMTSEKSQTPLV; Beta-endorphin; UniProt P01189 237-251, looked up, fragment) ?
condition not met

Item: BE 1-14: beta-endorphin N-terminal fragment, residues 1-14 (YGGFMTSEKSQTPL; Beta-endorphin; UniProt P01189 237-250, looked up, fragment)
condition not met

Would you mind doing BE 2-13: des-tyrosine beta-endorphin fragment, residues 2-13 (GGFMTSEKSQTP; Beta-endorphin; UniProt P01189 238-249, looked up, fragment) as well?
condition met

Same for BE 5-16: beta-endorphin fragment, residues 5-16 (MTSEKSQTPLVT; Beta-endorphin; UniProt P01189 241-252, looked up, fragment)
condition not met

Next up: BE 2-16: des-tyrosine beta-endorphin fragment, residues 2-16 (GGFMTSEKSQTPLVT; Beta-endorphin; UniProt P01189 238-252, looked up, fragment)
condition not met

Entry YGGFMTSEK [BE 1–9] please
condition met

Also check BE 3-17: beta-endorphin fragment, residues 3-17 (GFMTSEKSQTPLVTL; Beta-endorphin; UniProt P01189 239-253, looked up, fragment)
condition not met

Same for BE 2-14: beta-endorphin fragment, residues 2-14 (GGFMTSEKSQTPL; Beta-endorphin; UniProt P01189 238-250, looked up, fragment)
condition not met

Input BE 2-9: des-tyrosine beta-endorphin fragment, residues 2-9 (GGFMTSEK; Beta-endorphin; UniProt P01189 238-245, looked up, fragment)
condition met

Here is the next substance: BE 2-17: des-tyrosine beta-endorphin fragment, residues 2-17 (GGFMTSEKSQTPLVTL; Beta-endorphin; UniProt P01189 238-253, looked up, fragment)
condition not met

// next record YGGFMTSEKSQ [BE 1–11]
condition not met
